- Target entity: recombinant JAK1 (amino acids 866-1154) (Homo sapiens (Human), UniProt P23458)
- Sequence (P23458 866-1154): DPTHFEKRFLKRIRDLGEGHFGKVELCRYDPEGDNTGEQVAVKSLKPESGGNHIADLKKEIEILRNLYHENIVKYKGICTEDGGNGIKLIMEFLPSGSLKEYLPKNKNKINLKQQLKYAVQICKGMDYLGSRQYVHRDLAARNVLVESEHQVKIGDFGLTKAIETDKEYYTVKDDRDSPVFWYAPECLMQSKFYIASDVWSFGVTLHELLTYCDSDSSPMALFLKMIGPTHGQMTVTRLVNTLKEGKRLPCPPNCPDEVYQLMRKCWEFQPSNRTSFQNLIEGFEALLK
- Protocol notes: Enzyme inhibition studies, JAK1 (peptide phosphorylation, Caliper LC3000)
- Run parameters: ATP concentration not given (assayed at ATP Km 55 μM and at 5 mM)
pIC50: −log10 of the molar value.
Outcome: 1 for pIC50 of at least 7; 0 for anything lower.

COc1nn(C)cc1Nc1ncc(F)c(-c2c[nH]c3c(NC(=O)[C@@H](C)N4CCN(C)C[C@H]4C)cccc23)n1 ... 1
COC[C@@H](C(=O)Nc1cccc2c(-c3ccnc(Nc4cn(C)nc4OC)n3)c[nH]c12)N1CCN(C)CC1 ... 0
CCOc1nn(C)cc1Nc1ncc(C)c(-c2c[nH]c3c(NC(=O)[C@@H](CC)N4CCN(C)CC4)cccc23)n1 ... 1
COC[C@H](C(=O)Nc1cccc2c(-c3ccnc(Nc4cn(C)nc4OC)n3)c[nH]c12)N1CCN(C)CC1 ... 1

Enquiry: API: above_or_equal(metric=pIC50, cutoff=7) for item COC[C@@H](C(=O)Nc1cccc2c(-c3nc(Nc4cn(C)nc4C)ncc3F)c[nH]c12)N1CCN(C)CC1
Return: 0

Data provenance: patent US9714236B2
